Biological target: E. coli CsgA (Escherichia coli)
Construct: 6xHis (C); made in house; host or cells: E. coli NEB 3016 slyD::kan
Sequence (P28307 23-151): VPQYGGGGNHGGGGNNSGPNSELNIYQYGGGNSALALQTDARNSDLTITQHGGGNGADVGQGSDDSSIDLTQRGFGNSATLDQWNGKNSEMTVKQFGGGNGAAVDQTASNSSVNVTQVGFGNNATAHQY
Assay: Thioflavin T cell-free assay of CsgA aggregation
Assay type: biochemical
Conditions: read-out: Inhibition of Aggregation, CsgA
// not satisfied strictly below 10% in inhibition at 20 µM; satisfied otherwise

// below: answered molecules
O=C(Nc1cc(O)cc(O)c1)c1c[nH]c2cc(O)cc(O)c2c1=O : satisfied
COc1cc(OC(=O)c2c[nH]c3cc(OC)c(OC)c(OC)c3c2=O)cc(OC)c1OC : not satisfied
COc1cc(OC)c2c(=O)c(C(=O)N(C)c3cc(OC)c(OC)c(OC)c3)c[nH]c2c1 : not satisfied

Inquiry: Textbook exercise: given the entry COc1cc(NC(=O)c2c(-c3cc(OC)c(OC)c(OC)c3)[nH]c3cc(OC)c(OC)c(OC)c3c2=O)cc(OC)c1OC , state whether its inhibition at 20 µM is greater than or equal to 10%.
Reply text: satisfied

Inquiry: Textbook exercise: given the entry COc1cc(OC)c2c(=O)c(C(=O)Nc3ccccc3O)c[nH]c2c1 , state whether its inhibition at 20 µM is greater than or equal to 10%.
Reply text: satisfied

Inquiry: Textbook exercise: given the entry COc1cc2[nH]cc(C(=O)Nc3cccc(O)c3)c(=O)c2c(OC)c1OC , state whether its inhibition at 20 µM is greater than or equal to 10%.
Reply text: not satisfied

Inquiry: Textbook exercise: given the entry O=C(Nc1cccc(O)c1)c1c[nH]c2cc(O)c(O)c(O)c2c1=O , state whether its inhibition at 20 µM is greater than or equal to 10%.
Reply text: satisfied

Inquiry: Textbook exercise: given the entry O=C(Nc1cccc(O)c1)c1c[nH]c2ccccc2c1=O , state whether its inhibition at 20 µM is greater than or equal to 10%.
Reply text: not satisfied

###

Biological target: human α-synuclein (Homo sapiens, UniProt P37840)
Construct: the full-length gene for untagged human α-synuclein was inserted; made in house; host or cells: E. coli BL21 (DE3)
Assay: Thioflavin T cell-free assay of α-synuclein aggregation
Type: biochemical
Conditions: α-synuclein 50 μM, compounds at 20-50 μM, ThT fluorescence, data from 36 hours; negative = potentiation
measured_endpoint: Inhibition of Aggregation, αSyn (%)
Note: unit % is implicit; provide only the numeric part.

O=C(Nc1cccc(O)c1)c1c[nH]c2cc(O)cc(O)c2c1=O : 37

Let us examine a further case.
Inquiry: Quick check: Inhibition of Aggregation, αSyn of O=C(Nc1ccccc1)c1c[nH]c2cc(O)c(O)c(O)c2c1=O ?
Reply text: 92

###

Target: α-synuclein seeded by E. coli CsgA (Homo sapiens)
Construct: the full-length gene for untagged human α-synuclein was inserted; made in house; host or cells: α-synuclein: E. coli BL21 (DE3); CsgA: E. coli NEB 3016 slyD::kan
Test: Thioflavin T cell-free assay of CsgA-seeded α-synuclein aggregation
Assay type: biochemical
Conditions: read-out: Inhibition of Aggregation, CsgA-seeded αSyn (compound activity range)
measured_endpoint: inhibition at 50 µM

The examples below pair each entry with its known result.
O=C(Nc1ccccc1)c1c[nH]c2cc(O)cc(O)c2c1=O : > 60%
O=C(Nc1cc(O)c(O)c(O)c1)c1c(-c2cc(O)c(O)c(O)c2)[nH]c2cc(O)c(O)c(O)c2c1=O : > 60%
O=C(Nc1cccc(O)c1)c1c[nH]c2cc(O)cc(O)c2c1=O : > 60%

Inquiry: Quick check: inhibition at 50 µM of COc1cc(OC(=O)c2c[nH]c3cc(OC)c(OC)c(OC)c3c2=O)cc(OC)c1OC ?
Reply text: < -10%

Inquiry: Quick check: inhibition at 50 µM of O=C(Nc1cc(O)c(O)c(O)c1)c1c[nH]c2cc(O)c(O)c(O)c2c1=O ?
Reply text: 10 to 30%

Inquiry: Quick check: inhibition at 50 µM of O=C(Nc1sc2c(c1C(=O)Nc1cc(O)c(O)c(O)c1)CCCC2)c1cc(O)c(O)c(O)c1 ?
Reply text: > 60%
